biological target: recombinant SARS-CoV-2 RBD (Sino Biological) (SARS-CoV-2, UniProt P0DTC2); assay: cell-based or functional assay
metric: IC50, neutralisation of SARS-CoV-2 pseudovirus in HEK293T-ACE2 cells (ng/mL)

binder	measured
B8-mIgA2 (antibody, V domains shown) VH: EVQLVQSGAEVKKPGSSVKVSCKASGGTFSNYGISWVRQAPGQGLEWMGRILPTFGTANSAQKFQGRVTITADESTGTAYMELRSLRSEDTAVYYCAKEGLAFLGYGMDVWGQGTTVTVSS VL: EIVLTQSPGTLSLSPGERATLSCRASQSVSSYLAWYQQKPGQAPRLLIYDASNRATGIPARFIGSGSGTDFTLTISSLEPEDFAVYFCQQRSNWPLTFGGGTKVEIK	5.7
B8-dIgA1 (antibody, V domains shown) VH: EVQLVQSGAEVKKPGSSVKVSCKASGGTFSNYGISWVRQAPGQGLEWMGRILPTFGTANSAQKFQGRVTITADESTGTAYMELRSLRSEDTAVYYCAKEGLAFLGYGMDVWGQGTTVTVSS VL: EIVLTQSPGTLSLSPGERATLSCRASQSVSSYLAWYQQKPGQAPRLLIYDASNRATGIPARFIGSGSGTDFTLTISSLEPEDFAVYFCQQRSNWPLTFGGGTKVEIK	4.8
B8-mIgA1 (antibody, V domains shown) VH: EVQLVQSGAEVKKPGSSVKVSCKASGGTFSNYGISWVRQAPGQGLEWMGRILPTFGTANSAQKFQGRVTITADESTGTAYMELRSLRSEDTAVYYCAKEGLAFLGYGMDVWGQGTTVTVSS VL: EIVLTQSPGTLSLSPGERATLSCRASQSVSSYLAWYQQKPGQAPRLLIYDASNRATGIPARFIGSGSGTDFTLTISSLEPEDFAVYFCQQRSNWPLTFGGGTKVEIK	12
B8-dIgA2 (antibody, V domains shown) VH: EVQLVQSGAEVKKPGSSVKVSCKASGGTFSNYGISWVRQAPGQGLEWMGRILPTFGTANSAQKFQGRVTITADESTGTAYMELRSLRSEDTAVYYCAKEGLAFLGYGMDVWGQGTTVTVSS VL: EIVLTQSPGTLSLSPGERATLSCRASQSVSSYLAWYQQKPGQAPRLLIYDASNRATGIPARFIGSGSGTDFTLTISSLEPEDFAVYFCQQRSNWPLTFGGGTKVEIK	12

Cited source for all entries: paper PMC10444022
